Biological target: HLA-DR DRB4*0101 (DR53) (Homo sapiens, UniProt P01903+P13762, G164S)
Test: biochemical
Type: binding
Conditions: DRB4 *0101
PROPERTY: pIC50
The scale used: pIC50 is minus the common logarithm of the concentration in molar units.

smiles_string=CC[C@H](C)[C@H](NC(=O)[C@H](CO)NC(=O)[C@H](CC(=O)O)NC(=O)[C@H](CCCNC(=N)N)NC(=O)[C@H](Cc1ccc(O)cc1)NC(=O)[C@@H](NC(=O)[C@@H](NC(=O)[C@H](Cc1ccccc1)NC(=O)[C@@H](N)CC(C)C)C(C)C)C(C)C)C(=O)N1CCC[C@H]1C(=O)N[C@@H](Cc1c[nH]cn1)C(=O)N[C@@H](C)C(=O)N[C@@H](C)C(=O)N[C@@H](CS)C(=O)N[C@@H](Cc1c[nH]cn1)C(=O)O test_value=5.45
smiles_string=CSCC[C@H](NC(=O)[C@H](CC(C)C)NC(=O)[C@H](CCC(N)=O)NC(=O)[C@H](CC(=O)O)NC(=O)[C@H](CC(N)=O)NC(=O)[C@H](CCSC)NC(=O)[C@H](CCSC)NC(=O)[C@H](CCCNC(=N)N)NC(=O)[C@H](CC(C)C)NC(=O)[C@@H](N)C(C)C)C(=O)N[C@@H](Cc1ccccc1)C(=O)N[C@@H](CC(C)C)C(=O)N[C@@H](CCC(=O)O)C(=O)N[C@@H](CCCNC(=N)N)C(=O)N[C@@H](C)C(=O)O test_value=7.06
smiles_string=CSCC[C@H](NC(=O)CNC(=O)[C@H](CC(C)C)NC(=O)[C@H](CCC(N)=O)NC(=O)[C@@H](NC(=O)[C@H](CC(C)C)NC(=O)[C@H](CCC(N)=O)NC(=O)CNC(=O)[C@@H](N)Cc1ccccc1)[C@@H](C)O)C(=O)N[C@@H](CCC(=O)O)C(=O)N[C@@H](CCC(N)=O)C(=O)N[C@@H](Cc1c[nH]cn1)C(=O)N[C@@H](Cc1ccc(O)cc1)C(=O)N[C@@H](CCC(=O)O)C(=O)N[C@@H](CC(C)C)C(=O)O test_value=6.27
smiles_string=CC(C)C[C@H](NC(=O)[C@@H](NC(=O)[C@H](CCC(=O)O)NC(=O)[C@H](C)NC(=O)[C@H](C)NC(=O)[C@H](C)NC(=O)[C@H](CCC(N)=O)NC(=O)[C@@H](NC(=O)[C@@H](NC(=O)[C@H](Cc1ccccc1)NC(=O)[C@H](C)NC(=O)[C@H](C)NC(=O)[C@@H](N)C(C)C)[C@@H](C)O)C(C)C)[C@@H](C)O)C(=O)N[C@@H](CO)C(=O)N[C@@H](CCC(=O)O)C(=O)O test_value=6.33
smiles_string=CSCC[C@H](NC(=O)[C@@H]1CCCN1C(=O)[C@@H](N)CC(=O)O)C(=O)N[C@@H](Cc1ccccc1)C(=O)N[C@@H](CCCCN)C(=O)N[C@@H](Cc1ccc(O)cc1)C(=O)N[C@@H](Cc1c[nH]cn1)C(=O)N[C@@H](CC(C)C)C(=O)N[C@H](C(=O)N[C@H](C(=O)N[C@@H](C)C(=O)N[C@@H](CCC(N)=O)C(=O)N[C@H](C(=O)N[C@@H](CCCNC(=N)N)C(=O)NCC(=O)O)C(C)C)C(C)C)[C@@H](C)O test_value=6.33

CC[C@H](C)[C@H](NC(=O)[C@H](CCC(=O)O)NC(=O)[C@@H](NC(=O)[C@H](Cc1ccc(O)cc1)NC(=O)[C@H](CCC(=O)O)NC(=O)[C@@H](N)CCC(=O)O)C(C)C)C(=O)N[C@@H](CCCNC(=N)N)C(=O)N[C@@H](CCC(N)=O)C(=O)N[C@H](C(=O)NCC(=O)N[C@@H](CC(=O)O)C(=O)N[C@@H](Cc1ccccc1)C(=O)N[C@@H](Cc1c[nH]cn1)C(=O)O)C(C)C yielded pIC50 of 5.69

CC[C@H](C)[C@H](NC(=O)CNC(=O)[C@H](Cc1ccc(O)cc1)NC(=O)[C@H](CC(C)C)NC(=O)[C@H](CO)NC(=O)[C@H](CC(C)C)NC(=O)[C@H](CC(C)C)NC(=O)[C@H](CO)NC(=O)[C@@H](N)CC(C)C)C(=O)N[C@@H](Cc1c[nH]cn1)C(=O)N[C@@H](CCCCN)C(=O)N[C@@H](CCC(N)=O)C(=O)N[C@@H](CCCCN)C(=O)N[C@@H](CCC(=O)O)C(=O)N[C@@H](CCCCN)C(=O)O yielded pIC50 of 6.11

CC[C@H](C)[C@H](NC(=O)[C@H](Cc1ccccc1)NC(=O)[C@H](C)NC(=O)[C@H](CCCNC(=N)N)NC(=O)[C@H](CCC(=O)O)NC(=O)[C@H](CC(C)C)NC(=O)[C@H](Cc1ccccc1)NC(=O)[C@H](CCSC)NC(=O)[C@H](CC(C)C)NC(=O)[C@H](CCC(N)=O)NC(=O)[C@@H](N)CC(=O)O)C(=O)N[C@@H](CC(=O)O)C(=O)N1CCC[C@H]1C(=O)N[C@@H](CC(C)C)C(=O)NCC(=O)O yielded pIC50 of 8.18

CC[C@H](C)[C@H](NC(=O)[C@H](CCCCN)NC(=O)[C@H](C)NC(=O)[C@@H]1CCCN1C(=O)[C@H](CCC(=O)O)NC(=O)[C@H](CO)NC(=O)[C@H](CC(C)C)NC(=O)[C@H](CCCNC(=N)N)NC(=O)[C@H](CC(C)C)NC(=O)[C@H](CC(C)C)NC(=O)[C@H](CCSC)NC(=O)[C@H](CC(C)C)NC(=O)[C@H](CC(=O)O)NC(=O)[C@@H](N)Cc1c[nH]cn1)C(=O)N[C@H](C(=O)O)[C@@H](C)O yielded pIC50 of 7.92

CC[C@H](C)[C@H](NC(=O)[C@H](CCC(N)=O)NC(=O)[C@@H](NC(=O)[C@H](Cc1ccccc1)NC(=O)[C@H](CC(N)=O)NC(=O)[C@H](Cc1ccc(O)cc1)NC(=O)[C@H](CC(C)C)NC(=O)[C@H](Cc1ccccc1)NC(=O)[C@@H](N)CCCCN)[C@@H](C)O)C(=O)N1CCC[C@H]1C(=O)N[C@@H](Cc1c[nH]cn1)C(=O)N[C@@H](CC(C)C)C(=O)N[C@@H](C)C(=O)NCC(=O)N[C@H](C(=O)O)[C@@H](C)O yielded pIC50 of 6.59
